Recorded microsomal CLint for the following compounds
# method: Metabolic stability in human liver microsomes assessed as intrinsic clearance
# Assay type: ADME, Microsome
# measurement context: read-out: CLH
recorded metric: microsomal CLint

* Cc1cc(F)ccc1-c1cc2cc(CCC(=O)O)ccc2[nH]1 | ≤ 4 µL/min/mg
* Cc1ccc(C)c(-c2cc3cc(CCC(=O)O)ccc3[nH]2)c1 | ≤ 4 µL/min/mg

###

# target system: Free fatty acid receptor 1 (Homo sapiens)
# Sequence (O14842 whole entry): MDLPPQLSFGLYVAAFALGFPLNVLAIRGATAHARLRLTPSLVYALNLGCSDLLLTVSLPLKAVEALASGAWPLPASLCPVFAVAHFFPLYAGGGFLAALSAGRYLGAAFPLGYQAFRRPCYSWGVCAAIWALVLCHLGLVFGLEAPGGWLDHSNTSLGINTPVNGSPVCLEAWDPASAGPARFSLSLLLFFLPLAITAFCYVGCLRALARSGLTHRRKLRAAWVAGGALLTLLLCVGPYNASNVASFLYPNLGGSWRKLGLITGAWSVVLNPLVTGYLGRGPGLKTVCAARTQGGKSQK
# method: Agonist activity at GPR40 (unknown origin) expressed in CHO cells co-expressing luc2P/SRE assessed as firefly luciferase activity at 10 uM incubated for 24 hrs hrs by Bright-Glo based serum response element (SRE) luciferase reporter assay relative to TAK875
# Type: functional, cell-based
Emax listing for selected compounds.
recorded metric: Emax (%)

* O=C(O)CCc1ccc2[nH]c(-c3ccc(Cl)cc3C(F)(F)F)cc2c1 | 7.67
* O=C(O)CCc1ccc2[nH]c(-c3ccc(Cl)cc3F)cc2c1 | 2.18
* Cc1ccc(C)c(-c2cc3cc(CCC(=O)O)ccc3n2C)c1 | 20.3
* Cc1cc(F)ccc1-c1cc2cc(CCC(=O)O)ccc2n1C | 16.9
* O=C(O)CCc1ccc2[nH]c(-c3cccc(Cl)c3F)cc2c1 | 6.81
* O=C(O)CCc1ccc2[nH]c(-c3cc(Cl)ccc3Cl)cc2c1 | 22.8
* O=C(O)CCc1ccc2[nH]c(-c3ccncc3Cl)cc2c1 | 24.7
* Cc1ccc(Cl)cc1-c1cc2cc(CCC(=O)O)ccc2[nH]1 | 35

###

# MRT last at 8 h listing for each entry below
# method: MRTlast in CD-1 mouse at 10 mg/kg, po measured up to 8 hrs by LC-MS/MS analysis
# Format: ADME, organism-based
# measurement context: in vivo
recorded metric: MRT last at 8 h (h)

- Cc1ccc(C)c(-c2cc3cc(CCC(=O)O)ccc3[nH]2)c1: 2.06
- Cc1cc(F)ccc1-c1cc2cc(CCC(=O)O)ccc2[nH]1: 1.23

###

# method: Cmax in CD-1 mouse at 10 mg/kg, po measured up to 8 hrs by LC-MS/MS analysis
# Type: ADME, organism-based
# Design: route oral, dose 10 mg/kg, time <=8
# measurement context: in vivo
Items are presented alongside their recorded Cmax.
recorded metric: Cmax (ng/mL)

- Cc1ccc(C)c(-c2cc3cc(CCC(=O)O)ccc3[nH]2)c1: 52900
- Cc1cc(F)ccc1-c1cc2cc(CCC(=O)O)ccc2[nH]1: 3740

###

# method: Tmax in CD-1 mouse at 100 mg/kg, po measured up to 8 hrs by LC-MS/MS analysis
# Format: ADME, organism-based
# measurement context: in vivo
recorded metric: Tmax (min)

- Cc1cc(F)ccc1-c1cc2cc(CCC(=O)O)ccc2[nH]1: 26.4
- Cc1ccc(C)c(-c2cc3cc(CCC(=O)O)ccc3[nH]2)c1: 26.4

###

# target system: Free fatty acid receptor 1 (Homo sapiens)
# method: Agonist activity at GPR40 (unknown origin) expressed in CHO cells co-expressing luc2P/SRE assessed as firefly luciferase activity at 10 uM incubated for 24 hrs hrs by Bright-Glo based serum response element (SRE) luciferase reporter assay relative to TAK875
# Format: functional, cell-based
# measurement context: filed as agonist
Emax strictly under 70% means y; at 70% or over means n.

* O=C(O)CCc1ccc2[nH]c(-c3cccc(Cl)c3Cl)cc2c1 | n
* Cc1ccc(-c2cc3cc(CCC(=O)O)ccc3[nH]2)c(C)c1 | y
* Cc1cc(Br)ccc1-c1cc2cc(CCC(=O)O)ccc2[nH]1 | n
* Cc1c(Cl)cccc1-c1cc2cc(CCC(=O)O)ccc2[nH]1 | n
* Cc1cc(Cl)ccc1-c1cc2cc(CCC(=O)O)ccc2[nH]1 | n
* O=C(O)CCc1ccc2[nH]c(-c3ccc(Cl)cc3Cl)cc2c1 | y
* O=C(O)CCc1ccc2[nH]c(-c3c(Cl)cccc3Cl)cc2c1 | n

###

# target system: Free fatty acid receptor 2 (Homo sapiens, UniProt O15552)
# Sequence (O15552 whole entry): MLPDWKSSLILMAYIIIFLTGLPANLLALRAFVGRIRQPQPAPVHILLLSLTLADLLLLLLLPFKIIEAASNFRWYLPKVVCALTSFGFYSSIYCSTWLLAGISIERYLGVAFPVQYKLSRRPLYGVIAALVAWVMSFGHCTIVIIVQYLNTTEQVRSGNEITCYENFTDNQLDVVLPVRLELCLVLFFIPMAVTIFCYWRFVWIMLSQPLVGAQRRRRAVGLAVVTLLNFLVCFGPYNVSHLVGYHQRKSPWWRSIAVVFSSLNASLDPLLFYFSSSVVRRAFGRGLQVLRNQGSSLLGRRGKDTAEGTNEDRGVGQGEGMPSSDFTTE
# method: Agonist activity at FFAR2 (unknown origin)
Reported EC50 values are given for each entry in this list.
recorded metric: EC50

• Cc1ccc(C)c(-c2cc3cc(CCC(=O)O)ccc3[nH]2)c1 = > 25 µM
• Cc1cc(F)ccc1-c1cc2cc(CCC(=O)O)ccc2[nH]1 = > 25 µM

###

# method: Metabolic stability in mouse liver microsomes assessed as intrinsic clearance
# Assay type: ADME, Microsome
# measurement context: read-out: CLH
recorded metric: microsomal CLint (µL/min/mg)

* Cc1ccc(C)c(-c2cc3cc(CCC(=O)O)ccc3[nH]2)c1 | 10.5

###

Entries and their EC50 values follow.
# target system: Peroxisome proliferator-activated receptor gamma (Homo sapiens, UniProt P37231)
# Sequence (P37231 whole entry): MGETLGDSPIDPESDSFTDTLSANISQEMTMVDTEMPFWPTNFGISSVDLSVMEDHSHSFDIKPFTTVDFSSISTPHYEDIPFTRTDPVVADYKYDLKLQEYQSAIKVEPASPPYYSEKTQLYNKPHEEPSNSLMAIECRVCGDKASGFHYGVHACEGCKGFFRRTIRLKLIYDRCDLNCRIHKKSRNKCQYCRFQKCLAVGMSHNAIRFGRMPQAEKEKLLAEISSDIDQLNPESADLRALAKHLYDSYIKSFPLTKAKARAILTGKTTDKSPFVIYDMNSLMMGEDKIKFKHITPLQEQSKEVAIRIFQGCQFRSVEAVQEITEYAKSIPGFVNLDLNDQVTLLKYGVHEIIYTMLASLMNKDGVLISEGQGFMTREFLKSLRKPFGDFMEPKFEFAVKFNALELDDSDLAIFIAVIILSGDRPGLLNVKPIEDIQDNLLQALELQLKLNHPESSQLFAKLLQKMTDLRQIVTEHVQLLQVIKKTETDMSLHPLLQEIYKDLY
# method: Agonist activity at human PPARgamma expressed in CHO cells assessed as increase in receptor transcriptional activity incubated for 24 hrs by dual luciferase reporter gene assay
# Type: cell-based
# measurement context: read-out: EC50
recorded metric: EC50 (µM)

• Cc1cc(Cl)ccc1-c1cc2cc(CCC(=O)O)ccc2[nH]1 = 27.8
• Cc1cc(F)ccc1-c1cc2cc(CCC(=O)O)ccc2[nH]1 = 56.9

###

# method: Half life in CD-1 mouse at 90 mg/kg, po measured up to 8 hrs by LC-MS/MS analysis
# Type: ADME, organism-based
# measurement context: in vivo
recorded metric: half-life (h)

* Cc1ccc(C)c(-c2cc3cc(CCC(=O)O)ccc3[nH]2)c1 | 1.36
* Cc1cc(F)ccc1-c1cc2cc(CCC(=O)O)ccc2[nH]1 | 1.4

###

Quick reference for MRT last at 8 h among some compounds
# method: MRTlast in CD-1 mouse at 90 mg/kg, po measured up to 8 hrs by LC-MS/MS analysis
# Format: ADME, organism-based
# measurement context: in vivo
recorded metric: MRT last at 8 h (h)

* Cc1ccc(C)c(-c2cc3cc(CCC(=O)O)ccc3[nH]2)c1 | 2.31
* Cc1cc(F)ccc1-c1cc2cc(CCC(=O)O)ccc2[nH]1 | 1.14

###

# method: AUC (0 to t) in CD-1 mouse at 10 mg/kg, po measured up to 8 hrs by LC-MS/MS analysis
# Assay type: ADME, organism-based
# Parameters: route oral, dose 10 mg/kg, time <=8
# measurement context: in vivo
recorded metric: AUC(0-t) at 8 h (ng·h/mL)

- Cc1ccc(C)c(-c2cc3cc(CCC(=O)O)ccc3[nH]2)c1: 114000
- Cc1cc(F)ccc1-c1cc2cc(CCC(=O)O)ccc2[nH]1: 4860

###

Attribute: Cmax
# method: Cmax in CD-1 mouse at 30 mg/kg, po measured up to 8 hrs by LC-MS/MS analysis
# Type: ADME, organism-based
# Design: route oral, dose 30 mg/kg, time <=8
# measurement context: in vivo
recorded metric: Cmax (ng/mL)

* Cc1ccc(C)c(-c2cc3cc(CCC(=O)O)ccc3[nH]2)c1 | 24000
* Cc1cc(F)ccc1-c1cc2cc(CCC(=O)O)ccc2[nH]1 | 28700

###

# method: Tmax in CD-1 mouse at 10 mg/kg, po measured up to 8 hrs by LC-MS/MS analysis
# Assay type: ADME, organism-based
# measurement context: in vivo
Reported Tmax values are given for each entry in this list.
recorded metric: Tmax (min)

* Cc1ccc(C)c(-c2cc3cc(CCC(=O)O)ccc3[nH]2)c1 | 19.8
* Cc1cc(F)ccc1-c1cc2cc(CCC(=O)O)ccc2[nH]1 | 33

###

# key: entry, value: AUC(0-t) at 8 h
# method: AUC (0 to t) in CD-1 mouse at 30 mg/kg, po measured up to 8 hrs by LC-MS/MS analysis
# Assay type: ADME, organism-based
# Set-up: route oral, dose 30 mg/kg, time <=8
# measurement context: in vivo
recorded metric: AUC(0-t) at 8 h (ng·h/mL)

* Cc1cc(F)ccc1-c1cc2cc(CCC(=O)O)ccc2[nH]1 | 38700
* Cc1ccc(C)c(-c2cc3cc(CCC(=O)O)ccc3[nH]2)c1 | 33600

###

# method: Clast in CD-1 mouse at 10 mg/kg, po measured up to 8 hrs by LC-MS/MS analysis
# Type: ADME, organism-based
# measurement context: in vivo, read-out: Clast
Each item that follows carries a reported concentration at 8 h.
recorded metric: concentration at 8 h (ng/mL)

- Cc1ccc(C)c(-c2cc3cc(CCC(=O)O)ccc3[nH]2)c1: 1250
- Cc1cc(F)ccc1-c1cc2cc(CCC(=O)O)ccc2[nH]1: 11
